PROCEDURE DETAILS: small-molecule microarray binders of probe aEGFR, primary screen, biochemical, biotinylated probe, 635/667 nm fluorescence (AID 1097);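 also: probe is a biotinylated anti-EGFR antibody binding compounds printed on slides; score combines fluorescence near 667 nm and signal to noise of each spot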
STUDY CONDITIONS: higher = more signal
# binarize composite z-score: threshold 0.01 inclusive, high side True, low side False

## Task Form field: composite z-score at least 0.01? Entry: CC(C)c1ccc(NN2C(C(O)C3CCCCC3)C=CC3C(=O)N(c4ccccc4)C(=O)C32)cc1 (configuration not stated)
## Result True

## Task Form field: composite z-score at least 0.01? Entry: "[N-]=[N+]=Nc1ccccc1C[C@]1(C(N)=O)COC(c2ccc(OCCCO)cc2)=N1"
## Result True

## Task Form field: composite z-score at least 0.01? Entry: "CCCN1C(=O)[C@@]2(c3ccc([N+](=O)[O-])cc3)CC(=O)N(C3CCCCC3)[C@@H]2c2ccc(CO)cc21"
## Result True

## Task Form field: composite z-score at least 0.01? Entry: "COc1cccc(C)c1NC(=O)O[C@H]1[C@H](OC(=O)Nc2ccc3c(c2)OCO3)[C@H](OC(=O)Nc2ccc3c(c2)OCO3)[C@@H](OC)O[C@@H]1CO"
## Result False

## Task Form field: composite z-score at least 0.01? Entry: O=C1NC(=O)C2C1C=CC(C(O)c1ccc(F)cc1)N2Nc1ccc(Cl)cc1Cl (configuration not stated)
## Result False

## Task Form field: composite z-score at least 0.01? Entry: "COc1cccc(C)c1NC(=O)O[C@H]1[C@H](OC(=O)Nc2ccccc2)[C@@H](OC(=O)Nc2ccccc2)[C@@H](OC)O[C@@H]1CO"
## Result True

## Task Form field: composite z-score at least 0.01? Entry: COC(=O)c1ccc(OC)c(/C=C\CC(OC(=O)c2ccncc2)c2ccccc2)c1 (configuration not stated)
## Result False

## Task Form field: composite z-score at least 0.01? Entry: "CC(C)[Si]1(C(C)C)OCc2cc(-c3ccc(-c4ccc(Cl)c(Cl)c4)o3)nc(-c3ccc(Oc4ccccc4)cc3)c21"
## Result False

## Task Form field: composite z-score at least 0.01? Entry: "COc1ccc([Si](C)(C)[C@H]2[C@H](CCO)O[C@@]3(C(=O)N(Cc4ccccc4)c4ccc(NC(=O)[C@H](C)O)cc43)[C@@H]2C)cc1"
## Result True

## Task Form field: composite z-score at least 0.01? Entry: "C=CCN1C(=O)[C@@]2(O[C@@H](CCO)[C@H]([Si](C)(C)c3ccc(OC)cc3)[C@H]2C)c2cc(N3CCCCC3=O)ccc21"
## Result False

## Task Form field: composite z-score at least 0.01? Entry: CCCCN1CC=CC23O[C@@H]4/C=C\CCC(C)OC(=O)C4[C@H]2C(=O)N(CCO)[C@@H]3C1=O (some centres not stated)
## Result False

* * *

PROCEDURE DETAILS: binders of probe aHhip on microarray, primary screen, stem cell growth factor project, biochemical, small-molecule microarray, fluorescence 635/667 (AID 1087);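 also: score merges spot fluorescence at 667nm with spot signal to noise ratio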
STUDY CONDITIONS: higher = more signal
# binarize composite z-score: threshold -0.06 inclusive, high side criterion met, low side criterion not met

## Task Form field: composite z-score at least -0.06? Entry: "COCCOC(=O)N1C(=O)[C@@]2(c3cc(C#CCC(C(=O)OC)C(=O)OC)ccc31)[C@H](C(N)=O)[C@H]1C(=O)O[C@H](c3ccccc3)[C@H](c3ccccc3)N1[C@@H]2c1ccccc1OCCO"
## Result criterion not met

## Task Form field: composite z-score at least -0.06? Entry: "CN(C)C(=O)[C@]1(CCS(=O)(=O)c2ccccc2)N=C(c2ccc(OCCCO)cc2)O[C@@H]1c1ccccc1CN=[N+]=[N-]"
## Result criterion not met

## Task Form field: composite z-score at least -0.06? Entry: "O=C1O[C@H](c2ccccc2)[C@H](c2ccccc2)N2[C@H]1[C@@H](C(=O)N1CCN(c3ncccn3)CC1)[C@]1(C(=O)Nc3ccc(C#CC4(O)CCCCCC4)cc31)[C@H]2c1ccc(O)cc1"
## Result criterion not met

## Task Form field: composite z-score at least -0.06? Entry: "C=C(C(=O)CC[C@@H](OC(=O)c1ccccc1-c1ccccc1C(=O)O)c1cccc(OCCO)c1)C(C)C"
## Result criterion met

## Task Form field: composite z-score at least -0.06? Entry: CC1CC/C=C\[C@H]2OC34C=CCN(CCN5CCOCC5)C(=O)[C@H]3N(C(CO)C(C)C)C(=O)[C@@H]4C2C(=O)O1 (stereo partly drawn)
## Result criterion not met

## Task Form field: composite z-score at least -0.06? Entry: "COc1ccc(CCNC(=O)[C@@H]2c3ccccc3C(=O)N(Cc3cc(F)cc(C(F)(F)F)c3)[C@H]2c2ccc(CO)cc2)cc1"
## Result criterion not met

## Task Form field: composite z-score at least -0.06? Entry: "CO[C@H]1O[C@H](CO)[C@@H](OC(=O)Nc2cccc(F)c2)[C@H](OC(=O)Nc2ccc3c(c2)OCO3)[C@@H]1OC(=O)Nc1ccc2c(c1)OCO2"
## Result criterion met

## Task Form field: composite z-score at least -0.06? Entry: "C=CCNC(=O)[C@H]1[C@@H]2C(=O)O[C@@H](c3ccccc3)[C@@H](c3ccccc3)N2[C@@H](c2ccc(OCCO)cc2)[C@]12C(=O)N(C(=O)OCCOC)c1ccc(C#CCC(C(=O)OC)C(=O)OC)cc12"
## Result criterion met

* * *

PROCEDURE DETAILS: S. cerevisiae RM11-1a growth modifiers, primary screen, strain RM11-1a, OD600, basal, 24 h (AID 1177);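 also: cultures grown under basal conditions with no added stressor; test concentration not given here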
STUDY CONDITIONS: OD600, 24 h, higher = more signal, called active from +8 up or from −8 down
# binarize z-score: threshold 0.6 inclusive, high side satisfied, low side not satisfied

## Task Form field: z-score at least 0.6? Entry: "Cc1ccc(S[C@]2(C(=O)NCC(C)C)CC(=O)N(C(C)C)[C@@H]2c2ccc(CO)cc2I)cc1"
## Result not satisfied

## Task Form field: z-score at least 0.6? Entry: "C=CCNC(=O)[C@H]1[C@@H]2C(=O)O[C@@H](c3ccccc3)[C@@H](c3ccccc3)N2[C@@H](c2ccc(OCCO)cc2)[C@]12C(=O)Nc1ccc(C#Cc3ccc(OC)cc3)cc12"
## Result satisfied

## Task Form field: z-score at least 0.6? Entry: "O=C(NCCN1CCOCC1)[C@@H]1c2ccccc2C(=O)N(CC23CC4CC(CC(C4)C2)C3)[C@H]1c1ccc(CO)cc1"
## Result satisfied

## Task Form field: z-score at least 0.6? Entry: "C=C(CCCC)/C(=C/C[C@@H](OC(C)=O)c1ccc(OCCO)cc1)c1cc(C(=O)OC)ccc1OC"
## Result not satisfied

## Task Form field: z-score at least 0.6? Entry: [N-]=[N+]=Nc1ccccc1C[C@@]1(C(=O)NCC(O)CO)N=C(c2ccc(OCCCO)cc2)O[C@@H]1c1ccccc1N=[N+]=[N-] (stereo not given in full)
## Result satisfied

* * *

PROCEDURE DETAILS: RPMI8226 myeloma cell viability, profiling panel, resazurin fluorescence, basal, 24 h, PK04 Diversity Set (AID 1180);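 also: RPMI8826 multiple myeloma cell line at 5000 cells per well; test concentration not given here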
STUDY CONDITIONS: higher = more signal
MEASURED PROPERTY: z-score
Form: value (number only, do not type unit).

Form: compound = "C=C(COC)C(=O)CC[C@@H](OC(=O)c1ccccc1-c1ccccc1C(=O)O)c1ccccc1OCCO" ; z-score = -1.81

Form: compound = O=C1C2C=CC(C(O)C3CC=CCC3)N(Nc3ccc([N+](=O)[O-])cc3)C2C(=O)N1c1ccccc1 (stereo not drawn) ; z-score = -0.617

Form: compound = "Cc1cccc([C@H]2C[C@H]3C(Br)=C[C@@]2(CO)C(=O)[C@]32CO2)c1" ; z-score = 0.214

Form: compound = "CC[C@@H](O[Si](C#C[Si](C(C)C)(C(C)C)C(C)C)(C(C)C)C(C)C)c1cn([C@H](C)c2ccccc2)nn1" ; z-score = 0.328

Form: compound = "Cc1c(NC(=O)/C(C#N)=C/C=C/c2ccc([N+](=O)[O-])cc2)c(=O)n(-c2ccccc2)n1C" ; z-score = 0.664

Form: compound = "C=C(COC)/C(=C/C[C@@H](OC(C)=O)c1cccc(OCCO)c1)c1cnc2ccccc2c1" ; z-score = -0.311

Form: compound = "[N-]=[N+]=NCc1ccccc1C[C@]1(C(=O)N2CCCCC2)COC(c2ccc(OCCCO)cc2)=N1" ; z-score = 0.791

Form: compound = "O=C1c2ccccc2[C@](Cc2ccccc2I)(C(=O)NCCN2CCOCC2)[C@H](c2ccc(CO)cc2)N1Cc1ccccc1C(F)(F)F" ; z-score = -0.606

Form: compound = "C=CC[C@H](OC(=O)Nc1ccc(SC)cc1)c1ccc(O)c(F)c1" ; z-score = -1.54

Form: compound = "COCCCNC(=O)[C@@]1(Cc2ccccc2I)c2ccccc2C(=O)N(C2CCCCC2)[C@H]1c1ccc(CO)cc1" ; z-score = 0.448

Form: compound = COC(=O)C1=CC(c2ccc(CO)cc2)=CC(C2CC2)N(Cc2cc3c(cc2Br)OCO3)C=C1C(=O)OC (stereo not drawn) ; z-score = -1.25

Form: compound = "C=CC[C@@]1(C(=O)NCCCOC)N=C(c2ccc(OCCCO)cc2)O[C@@H]1c1ccccc1CN=[N+]=[N-]" ; z-score = 0.803

Form: compound = "COc1ccc([Si](C)(C)[C@H]2[C@H](CCO)O[C@@]3(C(=O)N(Cc4ccccc4)c4ccc(NC(=O)[C@H](C)O)cc43)[C@@H]2C)cc1" ; z-score = -5.45

Form: compound = "C=CCOC(=O)[C@@H]1[C@H]2C(=O)O[C@H](c3ccccc3)[C@H](c3ccccc3)N2[C@H](c2ccc(OCCOC(=O)[C@H]3C[C@H]4C(=O)N[C@@H](CCCCN(C)C)C(=O)N4[C@H]3c3cccc(OCCO)c3)cc2)[C@@]12C(=O)Nc1ccccc12" ; z-score = 0.835

Form: compound = "COc1ccc([Si](C)(C)[C@H]2[C@H](CC(=O)N(CCO)Cc3ccccc3)O[C@@]3(C(=O)N(Cc4ccc(N5C(=O)c6cccc7cccc5c67)cc4)c4ccccc43)[C@@H]2C)cc1" ; z-score = -2.14

Form: compound = "CCCCC(=C=CC[C@H](O)c1cccc(OCCO)c1)C[C@H](O)c1cc(Cl)cc(Cl)c1O" ; z-score = 0.242

Form: compound = "C=CCNC(=O)[C@H]1[C@@H]2C(=O)O[C@@H](c3ccccc3)[C@@H](c3ccccc3)N2[C@@H](c2ccc(O)cc2)[C@]12C(=O)Nc1ccc(C#CCC(C(=O)OC)C(=O)OC)cc12" ; z-score = -3.01

Form: compound = "COc1ccc(-c2cc3c(c(CCc4ccccc4)n2)[Si](C(C)C)(C(C)C)O[C@H]3c2ccccc2)cn1" ; z-score = -0.555

Form: compound = "COC(=O)[C@@]1(Cc2ccc(F)cc2)[C@H]2c3cc(C(=O)N4CCCC4)n(CCSCCO)c3C[C@H]2CN1C(=O)c1ccccc1" ; z-score = -0.546

Form: compound = COC(=O)C1(CC(C)C)C=C2C(=C(C)C(=O)C2C)CN1 (stereo not drawn) ; z-score = -1.8

Form: compound = N#Cc1ccc(NN2C(C(O)c3ccc(B(O)O)cc3)C=CC3CN(c4ccccc4)C(=O)C32)cc1 (stereo not drawn) ; z-score = -0.662

Form: compound = "CC(C)C[C@@H]1NC(=O)[C@@H]2C[C@H](C(=O)NCCCCCCNC(=O)CS)[C@H](c3ccc(O)cc3)N2C1=O" ; z-score = -0.898

Form: compound = "C=CCOC(=O)[C@H]1[C@@H]2C(=O)O[C@@H](c3ccccc3)[C@@H](c3ccccc3)N2[C@@H](c2ccc(OCCOC(=O)[C@H]3C[C@H]4C(=O)NCC(=O)N4[C@H]3c3ccc(O)cc3)cc2)[C@]12C(=O)Nc1ccccc12" ; z-score = 1.72

Where do these numbers come from? They come from PubChem BioAssay.
